system: Vero; assay: Cytotoxicity against african green monkey Vero cells after 72 hrs by crystal violet dye assay; format: cell-based; settings: Chlorocebus sabaeus
Property: IC50 (µM)

smiles_data=O=C(/C=C/c1ccc(O[C@@H]2O[C@H](CO)[C@@H](O)[C@H](O)[C@H]2O)cc1)CC(=O)/C=C/c1ccc(O[C@@H]2O[C@H](CO)[C@@H](O)[C@H](O)[C@H]2O)cc1 measured_target=Vero endpoint_result=330
smiles_data=COc1cc(/C=C/C(=O)CC(=O)/C=C/c2ccc(O)c(OC)c2)ccc1O measured_target=Vero endpoint_result=22

----------
test system: Vero; assay: Cytotoxicity against african green monkey Vero cells at 10 uM after 72 hrs by crystal violet dye assay; format: cell-based; details: chlorocebus sabaeus
Property: Activity

smiles_data=COc1cc(/C=C/C(=O)CC(=O)/C=C/c2ccc(O)c(OC)c2)ccc1O endpoint_result=25%
